Biological target: T1, rhesus monkey TROP2-Fc antigen protein (rhesus monkey, UniProt A0A5F8AGB8 27-274)
T1 construct: not shown: Fc
T1 sequence: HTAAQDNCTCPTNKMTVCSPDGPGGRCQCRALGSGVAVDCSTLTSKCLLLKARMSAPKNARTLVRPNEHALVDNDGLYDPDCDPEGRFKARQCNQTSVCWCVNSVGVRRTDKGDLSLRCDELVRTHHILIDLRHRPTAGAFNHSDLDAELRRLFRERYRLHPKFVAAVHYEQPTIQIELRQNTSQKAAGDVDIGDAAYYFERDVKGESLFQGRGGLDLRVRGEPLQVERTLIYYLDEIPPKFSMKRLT
Assay: ELISA, coated rhesus monkey TROP2-Fc, Kd calculated from absorbance
# Kd values compiled below
The response must be a number in nM with no trailing unit.

Below are worked cases with known answers.
MY1530-1-26 (VHH, Expressed in E. coli WK6 from vector pMECS, purified on a nickel column; also called MY1530-1-26 VHH; anti-TROP2 single domain antibody) VHH: QVQLQESGGGSVQAGGSLRLSCVVSGYTTTRYSMAWFRQAPGKEREGVAGIDTDVLTTYKPSVEGRFTISRDSAKRTLYLQMNSLKPEDTAMYYCATGTGNFLALDPVWYNTWGQGTQVTVSS; 29.4
MY1530-5-54 (VHH, Expressed in E. coli WK6 from vector pMECS, purified on a nickel column; also called MY1530-5-54 VHH; anti-TROP2 single domain antibody) VHH: QVQLQESGGGSVQPGGSLRLSCVASGYTASSVCMAWFRQAPGKERELVAGYYHSGGTYYGDSVKGRFTASQDNAKNTLYLQMNSLKPEDTATYYCARARYPSSACGTSPSNYNIWGQGTQVTVSS; 1.73
MY1530-4-22 (VHH, Expressed in E. coli WK6 from vector pMECS, purified on a nickel column; also called MY1530-4-22 VHH; anti-TROP2 single domain antibody) VHH: QVQLQESGGGSVQAGGSLKLSCVVSGYTVSSVCMAWFRQAPGMERELVAGFYHSGGTYYGDSVKGRFTASQDNAKNTLYLQMNSLKPEDTATYYCARARYPSSACGTSPSNYNIWGQGTQVTVSS; 1.67

Consider the additional binder presented here.
Lookup: Which Kd reading was recorded for the binder MY1530-1-20 (VHH, Expressed in E. coli WK6 from vector pMECS, purified on a nickel column; also called MY1530-1-20 VHH; anti-TROP2 single domain antibody) VHH: QVQLQESGGGSVLAGGSLRLSCTVSGSFVSSRSMAWFRQTPGKEREGVAAISQYGDPKYAGSVKGRFTMSRDNAKNTLLLQMNSLKPEDTAIYYCAAGEAWELATLSRSDYIYWGQGTQVTVSS ?
Found: 2.33
